# Target or system: recombinant human TFPI (tissue factor pathway inhibitor) (human, UniProt P10646 29-304)
# Protocol description: cell-based or functional assay
Reported endpoint: FXa assay OD, 5 nM Ab, 10 nM TFPI
Write the value as a bare number.

What value of FXa assay OD, 5 nM Ab, 10 nM TFPI has been recorded for this entry: clone 1224 (antibody, V domains shown) VH: EVQLVESGGGLVKPGGSLRLSCAASGFTFSSYAMSWVRQAPGKGLEWVSTITTGGSYTYYADSVDGRFTISRDNAKNSLYLQMNSLRAEDTAVYYCARQDGNFLMDYWGQGTLVTVSS VL: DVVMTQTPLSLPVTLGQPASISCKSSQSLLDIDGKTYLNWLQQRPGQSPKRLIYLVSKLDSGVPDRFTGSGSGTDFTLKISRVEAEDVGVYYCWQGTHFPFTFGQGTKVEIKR
0.06

Param item = clone 1214 (antibody, V domains shown) VH: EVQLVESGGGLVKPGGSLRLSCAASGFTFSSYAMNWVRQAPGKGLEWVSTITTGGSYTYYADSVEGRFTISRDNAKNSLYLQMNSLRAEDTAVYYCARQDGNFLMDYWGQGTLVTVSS VL: DVVMTQTPLSLPVTLGQPASISCKSSQSLLDVDGKTYLNWLQQRPGQSPKRLIYLVSKLDSGVPDRFTGSGSGTDFTLKISRVEAEDVGVYYCWQGTHFPFTFGQGTKVEIKR ; retrieve measured FXa assay OD, 5 nM Ab, 10 nM TFPI.
0.202

Recorded FXa assay OD, 5 nM Ab, 10 nM TFPI for clone 1238 (antibody, V domains shown) VH: EVQLVESGGGLVKPGGSLRLSCAASGFTFSSYAMNWVRQAPGKGLEWVSTITTGGSYTYYADSVEGRFTISRDNAKNSLYLQMNSLRAEDTAVYYCARQDGHFLMDYWGQGTLVTVSS VL: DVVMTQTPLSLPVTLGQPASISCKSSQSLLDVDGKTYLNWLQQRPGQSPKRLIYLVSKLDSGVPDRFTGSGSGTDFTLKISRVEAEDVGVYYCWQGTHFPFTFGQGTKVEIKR , please?
0.115
